Test system: LXFL 529 NSCLC
experimental_protocol: NCI tumour cell line growth inhibition, 48 h
test_readout: TGI

Enquiry: // lookup TGI for CCC[CH2][Ge]([CH2]CCC)([CH2]CCC)[O]C(=O)C(O)c1ccccc1 (stereo not given)
Return: 21.4 µM

Enquiry: Another: COc1cc2c(c(OC)c1OC)-c1ccc(SC)c(=O)cc1[C@@H](NCc1cccc(C#N)c1)CC2
Return: > 75 µM

Enquiry: Another: COc1cc(/C=C/c2ccc(OC(C)=O)cc2)cc(OC)c1OC
Return: > 100 µM

Enquiry: Another: COc1ccc(/C=C2\SC(c3ccc(OC)cc3)N(NC(=O)Cc3ccccc3)C2=O)cc1 (stereo not given)
Return: > 100 µM

Enquiry: Another: O=C(O)C1=NNC(C(=O)O)=NN1
Return: > 100 µM
